These measurements were taken from patent US20070032521A1.

# IC50 per record follows
molecular target: purified intracellular domain of c-kit (Homo sapiens, UniProt P10721); construct: purified intracellular domain of c-kit expressed in baculovirus; assay: in vitro TK inhibition assay (ELISA, phosphorylation of tyrosine containing target peptide); conditions: purified intracellular domain of c-kit expressed in baculovirus
Sequence (P10721 546-976 limits assumed): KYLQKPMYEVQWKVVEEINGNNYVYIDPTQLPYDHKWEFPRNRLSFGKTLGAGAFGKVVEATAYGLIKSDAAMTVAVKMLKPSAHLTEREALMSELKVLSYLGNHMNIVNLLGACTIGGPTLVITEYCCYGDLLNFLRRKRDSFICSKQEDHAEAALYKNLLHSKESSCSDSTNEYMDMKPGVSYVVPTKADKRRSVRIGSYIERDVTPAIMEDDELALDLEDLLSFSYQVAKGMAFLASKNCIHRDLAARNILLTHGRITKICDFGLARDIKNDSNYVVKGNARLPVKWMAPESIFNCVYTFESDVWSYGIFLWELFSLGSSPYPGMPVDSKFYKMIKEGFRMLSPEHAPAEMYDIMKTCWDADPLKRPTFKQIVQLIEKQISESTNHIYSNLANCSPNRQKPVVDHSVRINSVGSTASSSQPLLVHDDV

Cc1ccc(NC(=O)c2cccc(OCCN3CCOCC3)c2)cc1Nc1nc(-c2cccnc2)cs1 : < 10 µM
Cc1ccc(NC(=O)c2ccc(C(C)N3CCN(C)CC3)cc2)cc1Nc1nc(-c2cccnc2)cs1 (centres unmarked) : < 10 µM

Could you tell me which IC50 is on file for `Cc1ccc(NC(=O)c2ccc(CNC(=O)OC(C)(C)C)cc2)cc1Nc1nc(-c2cccnc2)cs1` ?
< 10 µM

Now give it for `Cc1ccc(NC(=O)c2cccc(N(C)C)c2)cc1Nc1nc(-c2cccnc2)cs1` too.
< 10 µM

Now give it for `Cc1ccc(NC(=O)c2ccc(N(C)C)cc2)cc1Nc1nc(-c2cccnc2)cs1` too.
< 10 µM

Now give it for `Cc1ccc(NC(=O)Nc2ccc(C)c(Nc3nc(-c4cccnc4)cs3)c2)cc1` too.
< 10 µM

Now give it for `Cc1ccc(NC(=O)c2ccc(C(C)(C)C)cc2)cc1Nc1nc(-c2cccnc2)cs1` too.
< 10 µM

Now give it for `Cc1cncc(-c2csc(Nc3cc(NC(=O)c4ccc(CN5CCN(C)CC5)cc4)ccc3C)n2)c1` too.
< 10 µM

###

MEASURED_ENDPOINT: melting point

Worked cases, melting point given:
Cc1ccc(NC(=O)CCCN2CCOCC2)cc1Nc1nc(-c2cccnc2)cs1 : 116 to 120 °C
Cc1ccc(NC(=O)c2cccc(N3CCOCC3)c2)cc1Nc1nc(-c2cccnc2)cs1 : 247 to 248 °C
Cc1ccc(NC(=O)c2cccc(OCCN3CCOCC3)c2)cc1Nc1nc(-c2cccnc2)cs1 : 75 to 80 °C
Cc1ccc(NC(=O)c2ccc(C(C)(C)C)cc2)cc1Nc1nc(-c2cccnc2)cs1 : 145 to 150 °C

Switching to the query record.
Could you tell me which melting point is on file for `Cc1ccc(NC(=O)c2cccc(N(C)C)c2)cc1Nc1nc(-c2cccnc2)cs1` ?
197 to 198 °C

###

# melting point per record follows

Could you tell me which melting point is on file for Cc1ccc(NC(=O)c2cccc(F)c2)cc1Nc1nc(-c2cccnc2)cs1 [Compound 045] ?
184 to 186 °C

Now give it for Cc1ccc(F)c(C(=O)Nc2ccc(C)c(Nc3nc(-c4cccnc4)cs3)c2)c1 [Compound 048] too.
103 to 106 °C

Now give it for Cc1ccc(NC(=O)c2ccc(NS(=O)(=O)c3cccs3)cc2)cc1Nc1nc(-c2cccnc2)cs1 [Compound 044] too.
230 to 233 °C

Now give it for Cc1ccc(NC(=O)c2ccc(C(C)N3CCN(C)CC3)cc2)cc1Nc1nc(-c2cccnc2)cs1 (stereo not drawn) [Compound 082] too.
153 to 155 °C

Now give it for Cc1ccc(NC(=O)Nc2ccc(C)c(Nc3nc(-c4cccnc4)cs3)c2)cc1 [Compound 026] too.
210 to 215 °C

Now give it for Cc1ccc(NC(=O)c2ccc3c(c2)OCO3)cc1Nc1nc(-c2cccnc2)cs1 [Compound 051] too.
130 to 132 °C

Now give it for Cc1ccc(NC(=O)c2ccc(CN3CCN(C)CC3)c(C(F)(F)F)c2)cc1Nc1nc(-c2cccnc2)cs1 [Compound 075] too.
118 to 120 °C

Now give it for Cc1ccc(NC(=O)Nc2cccc(F)c2)cc1Nc1nc(-c2cccnc2)cs1 [Compound 025] too.
210 to 215 °C

Now give it for Cc1ccc(NC(=O)c2ccc(-c3ccncc3)cc2)cc1Nc1nc(-c2cccnc2)cs1 [Compound 046] too.
254 to 256 °C
